These entries and their values trace back to patent US20260297085A1.

Form field: pIC50 (one value per entry).
Biological target: human JAK2 kinase domain (JH1) (Homo sapiens)
Construct: recombinantly generated catalytic kinase (also known as JH1) domain of human JAK1, JAK2, JAK3 and TYK2
Sequence (O60674 849-1124 limits assumed): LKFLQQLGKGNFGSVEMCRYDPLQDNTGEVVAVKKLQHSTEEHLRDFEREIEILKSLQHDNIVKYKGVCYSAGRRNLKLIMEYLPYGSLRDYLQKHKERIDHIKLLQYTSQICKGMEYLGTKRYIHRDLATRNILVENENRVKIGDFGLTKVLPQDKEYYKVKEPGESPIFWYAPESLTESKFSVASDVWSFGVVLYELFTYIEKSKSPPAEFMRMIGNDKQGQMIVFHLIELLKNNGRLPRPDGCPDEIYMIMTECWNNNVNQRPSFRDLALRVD
Assay: JH1 biochemical assay for JAK2 (ADP-Glo kinase assay, recombinant JH1 catalytic domain, JAK3-974 peptide, 15 μM ATP)
Conditions: JAK2 JH1, ADP-Glo
pIC50: −log10 of the molar value. Where a name gives a salt, the structure may show the parent alone.

Some solved cases for reference:
Cc1c(-c2cn3ncc(F)c3c(N3C[C@@H](C)[C@@](C#N)(C4CC4)C3=O)n2)cnn1C
5.30 to 6.00
C[C@@H]1OC[C@@H]1n1cc(-c2cn3ncc(F)c3c(N3C[C@@H](C)[C@@](C#N)(C4CC4)C3=O)n2)cn1 (relative stereo)
> 7.00
Cc1cnn(-c2cc3c(N4C[C@@H](C)[C@@](C#N)(C5CC5)C4=O)ccnn3c2)n1
< 5.00
CC(C)n1cc(-n2nc(N3C[C@@H](C)[C@@](C#N)(C4CC4)C3=O)c3ccncc32)cn1
6.00 to 7.00
COc1cncc(-c2cn3nccc3c(N3C[C@@H](C)[C@@](C#N)(C4CC4)C3=O)n2)c1 [Example 244, trifluoroacetate]
6.00 to 7.00

stdin: Query the reported pIC50 for human JAK2 kinase domain (JH1) (Homo sapiens); item: `C[C@@H]1CN(c2ccnn3cc(-c4cnn([C@H]5C[C@@](F)(C#N)C5)c4)cc23)C(=O)[C@]1(C#N)C1CC1`
stdout: > 7.00

stdin: Query the reported pIC50 for human JAK2 kinase domain (JH1) (Homo sapiens); item: `C[C@@H]1CN(c2ccnn3cc(-c4cnn(C5CC6(C5)CN(C)C6)c4)cc23)C(=O)[C@]1(C#N)C1CC1`
stdout: 6.00 to 7.00

stdin: Query the reported pIC50 for human JAK2 kinase domain (JH1) (Homo sapiens); item: `Cc1cncc(-c2cn3nccc3c(N3C[C@@H](C)[C@@](C#N)(C4CC4)C3=O)n2)c1`
stdout: 6.00 to 7.00

stdin: Query the reported pIC50 for human JAK2 kinase domain (JH1) (Homo sapiens); item: `C[C@@H]1CN(c2cccn3nc(-c4cnn(C)c4)cc23)C(=O)[C@]1(C#N)C1CC1`
stdout: < 5.00

stdin: Query the reported pIC50 for human JAK2 kinase domain (JH1) (Homo sapiens); item: C[C@@H]1CN(c2nc(-c3ccc4cnn(C)c4c3)cn3nccc23)C(=O)[C@]1(C#N)C1CC1 [Example 259, trifluoroacetate]
stdout: > 7.00
